- Tested on: human TRPM8 receptor (Homo sapiens, UniProt Q7Z2W7)
- Construct: expressed in transfected cells
- Sequence (Q7Z2W7 whole entry): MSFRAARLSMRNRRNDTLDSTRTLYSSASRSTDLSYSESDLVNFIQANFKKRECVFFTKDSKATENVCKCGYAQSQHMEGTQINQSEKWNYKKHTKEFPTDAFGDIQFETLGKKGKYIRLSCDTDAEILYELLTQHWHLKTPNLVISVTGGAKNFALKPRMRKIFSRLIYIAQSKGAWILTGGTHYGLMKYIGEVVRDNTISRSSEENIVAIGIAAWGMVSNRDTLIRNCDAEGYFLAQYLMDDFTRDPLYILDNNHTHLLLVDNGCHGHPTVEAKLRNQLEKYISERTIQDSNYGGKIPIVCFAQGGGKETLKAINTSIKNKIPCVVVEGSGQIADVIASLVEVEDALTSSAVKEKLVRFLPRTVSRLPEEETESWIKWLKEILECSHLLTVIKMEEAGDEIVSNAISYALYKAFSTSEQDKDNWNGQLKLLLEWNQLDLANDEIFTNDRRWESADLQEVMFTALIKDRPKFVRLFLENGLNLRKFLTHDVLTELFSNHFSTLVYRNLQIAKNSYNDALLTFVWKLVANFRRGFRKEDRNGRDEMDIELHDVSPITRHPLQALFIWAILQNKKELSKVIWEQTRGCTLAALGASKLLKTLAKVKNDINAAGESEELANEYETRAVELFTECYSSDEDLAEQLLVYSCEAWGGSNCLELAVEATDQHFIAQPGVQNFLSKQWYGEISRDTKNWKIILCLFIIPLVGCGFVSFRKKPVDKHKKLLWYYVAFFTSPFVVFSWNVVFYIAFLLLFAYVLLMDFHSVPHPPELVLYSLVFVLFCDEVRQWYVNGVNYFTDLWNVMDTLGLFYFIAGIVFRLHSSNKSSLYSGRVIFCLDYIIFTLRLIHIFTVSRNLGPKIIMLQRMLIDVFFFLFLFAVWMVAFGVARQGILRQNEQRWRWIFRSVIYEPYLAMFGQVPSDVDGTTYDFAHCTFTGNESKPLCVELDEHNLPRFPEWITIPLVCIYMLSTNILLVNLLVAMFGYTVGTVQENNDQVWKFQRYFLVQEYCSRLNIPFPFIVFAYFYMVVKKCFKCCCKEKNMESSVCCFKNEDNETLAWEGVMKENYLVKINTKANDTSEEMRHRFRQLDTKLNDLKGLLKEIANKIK
- Assay summary: Assay on TRPM8 modulators: Ca2+ signal (Fluo-4) in HEK293 cells stably transfected with human TRPM8
- Type: cell-based
- Set-up: concentration or dose not given beside the values
Below is a list of entries, each paired with its recorded Relative TRPM8 activation (%) value.
Express your answer in %, writing the number without its unit.

Observe how each entry below is paired with its result.
c1ccc(-c2cc(CNCc3cccc4c3OCO4)co2)cc1 0
c1cc(CNCc2ccnc(-n3cccc3)c2)c2c(c1)OCO2 3
CCCC1CCN(c2cc(CNCc3cccc4c3OCO4)ccn2)CC1 −0.8
O=C(NCc1cccc2c1OCO2)c1ccnc(N2CCCCC2)c1 0

The record that follows has no Relative TRPM8 activation (%) shown yet.
Query: Recorded Relative TRPM8 activation (%) of `c1ccc(-c2cc(CNCc3cccc4c3OCO4)cs2)cc1` , please.
Result: 0

---

- Tested on: human TRPM8 receptor (Homo sapiens, UniProt Q7Z2W7)
- Assay summary: Assay on TRPM8 modulators: Ca2+ signal (Fluo-4) in HEK293 cells stably transfected with human TRPM8
- Measurement setup: HEK293-TRPM8 cells, Fluo-4; read-out: Activity in vitro assay (EC50)
pEC50: −log10 of the molar value.
Hi, to clarify the labels: True covers pEC50 from 6 upward, False covers anything below 6.

Compound	Label class
COc1ccc(CNCc2cccc(N3CCCC3)c2)cc1	False

Query: Does the reported pEC50 for `c1cc(CNCc2ccnc(N3CCOCC3)c2)c2c(c1)OCO2` fall at or above the 6 mark?
Result: False

Query: Same again, this time with `COc1ccc(CNCc2ccnc(N3CCCCC3)c2)cc1`
Result: True

Query: Same again, this time with `CC1CCN(c2cc(CNCc3cccc4c3OCO4)ccn2)CC1`
Result: False

Query: Same again, this time with `Cc1ccc(CNCc2ccnc(N3CCCCC3)c2)cc1`
Result: True

Query: Same again, this time with `COc1ccc(CNCc2ccnc(N3CCSCC3)c2)cc1`
Result: False

---

- Tested on: human TRPM8 receptor (Homo sapiens, UniProt Q7Z2W7)
- Assay summary: Assay on TRPM8 modulators: Ca2+ signal (Fluo-4) in HEK293 cells stably transfected with human TRPM8
- Measurement setup: HEK293-TRPM8 cells, Fluo-4; read-out: Activity in vitro assay (EC50)
- Experimental: The starting point for cloning the human TRPM8 receptor is an LnCaP cDNA bank. […] A test similar to the one already described in the literature by Behrendt H. J. et al., Br. J. Pharmacol. 141, 2004, 737-745, is performed. The agonisation or antagonisation of the receptor can be quantified by means of a Cab-sensitive dye (e.g. FURA, Fluo-4 etc.). […] With the aid of the assay described, the activity of the active substances is determined in relation to activation of the TRPM8 channel. […]
Quantity: EC50 (nM)
Express your answer in nM, writing the number without its unit.

Observe how each entry below is paired with its result.
Compound	Quantity	Unit label	Observed result
CCOc1cccc(CNCc2ccnc(N3CCCCC3)c2)c1OCC	EC50	nM	5860
CC1CC(C)CN(c2cc(CNCc3cccc4c3OCO4)ccn2)C1 (centres unmarked)	EC50	nM	2530
CC(NCc1cccc2c1OCO2)c1ccnc(N2CCCCC2)c1 (centres unmarked)	EC50	nM	150
CC1CCCCN1c1cc(CNCc2cccc3c2OCO3)ccn1 (centres unmarked)	EC50	nM	330

Query: Recorded EC50 of CC1CCCN(c2cc(CNCc3cccc4c3OCO4)ccn2)C1 (centres unmarked) , please.
Result: 600

---

- Tested on: UniProtKB Q7Z2W7
- Assay summary: Assay on TRPM8 modulators: Ca2+ signal (Fluo-4) in HEK293 cells stably transfected with human TRPM8
- Measurement setup: HEK293-TRPM8 cells, Fluo-4; read-out: Activity in vitro assay (EC50)
Below is a list of entries, each paired with its recorded EC50 value.

Molecule	Observed result
COc1cccc(CNCc2ccnc(N3CCCCC3)c2)c1OC [Example 23]	0.76 µM
c1cc(CNCc2ccnc(N3CCSCC3)c2)c2c(c1)OCO2 [Example 22]	1.19 µM
COc1cccc(CNCc2ccnc(N3CCCCC3)c2)c1 [Example 49]	0.6 µM
CCC1CCCN(c2cc(CNCc3cccc4c3OCO4)ccn2)C1 (stereo not shown) [Example 18]	2.01 µM
c1cc(CNCc2ccnc(N3CCCCC3)c2)c2c(c1)OCO2 [Example 1]	0.115 µM

Query: Recorded EC50 of CCNC(=O)[C@@H]1C[C@H](C)CC[C@H]1C(C)C [WS-3, L-menthanecarboxylic acid-N-ethylamide, reference compound] , please.
Result: 1.72 µM

Query: Same again, this time with CCOc1cccc(CNCc2ccnc(N3CCCCC3)c2)c1OC [Example 24]
Result: 1.11 µM

Query: Same again, this time with c1ccc(CNCc2ccnc(N3CCCCC3)c2)cc1 [Example 39]
Result: 0.06 µM

Query: Same again, this time with CSc1cc(CNCc2cccc3c2OCO3)ccn1 [Example 29]
Result: 6.5 µM

Query: Same again, this time with CC(C)C(NCc1cccc2c1OCO2)c1ccnc(N2CCCCC2)c1 (stereo not shown) [Example 11]
Result: 8.35 µM

Query: Same again, this time with CC1(C)CCCN(c2cc(CNCc3cccc4c3OCO4)ccn2)C1 [Example 17]
Result: 0.72 µM

Query: Same again, this time with CC1(C)CCN(c2cc(CNCc3cccc4c3OCO4)ccn2)CC1 [Example 15]
Result: 2.63 µM

Query: Same again, this time with c1cc(CCNCCc2ccnc(N3CCCCC3)c2)c2c(c1)OCO2 [Example 34]
Result: 0.8 µM
